B1: TPR t1 (parent)
chain: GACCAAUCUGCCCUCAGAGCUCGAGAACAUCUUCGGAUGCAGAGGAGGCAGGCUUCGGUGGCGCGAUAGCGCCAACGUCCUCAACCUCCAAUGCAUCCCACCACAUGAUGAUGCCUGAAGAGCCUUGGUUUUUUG

- Variants of: B1
- PROCEDURE DETAILS: polymerase ribozyme fitness, log enrichment relative to wild type (log ratio); higher = more active; in vitro selection for triplet polymerase activity
PARAMETER MEASURED: polymerase ribozyme fitness (log ratio)
A bare number is all that is needed in reply.

polymerase ribozyme fitness (log ratio) in this record for C79A A100C : -2.29

polymerase ribozyme fitness (log ratio) in this record for G17U U130C : -1.79

polymerase ribozyme fitness (log ratio) in this record for C13G C22U G113A : -4.71

polymerase ribozyme fitness (log ratio) in this record for C12U C53A G58C C82G G128A : -2.46

polymerase ribozyme fitness (log ratio) in this record for U21G A27U G60U C80A C123G : -6.74

polymerase ribozyme fitness (log ratio) in this record for A2C A27C G127C G135U : -6.34

polymerase ribozyme fitness (log ratio) in this record for G39U C64U A91C C123A : -1.57

polymerase ribozyme fitness (log ratio) in this record for U9C A29U U129A : -2.08

polymerase ribozyme fitness (log ratio) in this record for G45A G63A : -1.39

polymerase ribozyme fitness (log ratio) in this record for U7A U21G A75G : -1.8

polymerase ribozyme fitness (log ratio) in this record for C11U G23A G110C U130G : -6.32
